molecular target: recombinant human dopamine transporter (Homo sapiens, UniProt Q01959); construct: expressed in transfected cells; assay: [125I]RTI-55 binding, dopamine transporter in HEK 293 cells; details: RR/SS racemates table; HEK 293 cells; read-out: DOPAMINE [I125]-RTI-55 BINDING (Ki)
Sequence (Q01959 whole entry): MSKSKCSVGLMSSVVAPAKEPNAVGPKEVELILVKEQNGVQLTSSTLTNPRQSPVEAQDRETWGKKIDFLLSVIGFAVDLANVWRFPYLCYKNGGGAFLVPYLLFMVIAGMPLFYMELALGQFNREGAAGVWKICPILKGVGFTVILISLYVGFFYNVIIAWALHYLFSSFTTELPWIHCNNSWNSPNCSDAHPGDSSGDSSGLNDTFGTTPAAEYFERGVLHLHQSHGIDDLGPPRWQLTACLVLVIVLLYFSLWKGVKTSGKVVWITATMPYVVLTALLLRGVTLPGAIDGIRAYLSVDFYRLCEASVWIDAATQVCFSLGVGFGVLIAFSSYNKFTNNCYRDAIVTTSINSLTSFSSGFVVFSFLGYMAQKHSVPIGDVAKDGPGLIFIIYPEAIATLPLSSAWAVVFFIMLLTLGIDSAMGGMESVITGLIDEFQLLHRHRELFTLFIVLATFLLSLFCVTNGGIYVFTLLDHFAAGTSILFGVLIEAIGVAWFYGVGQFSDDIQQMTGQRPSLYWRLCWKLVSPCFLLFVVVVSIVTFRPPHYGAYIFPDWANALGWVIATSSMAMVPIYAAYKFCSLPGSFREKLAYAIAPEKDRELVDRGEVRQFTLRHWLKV
readout label: Ki (nM)
Give just the number in nM; leave the unit off.

Sample records with Ki:
[
  {
    "compound": "Clc1ccc(C(CC2CCCC2)C2CCCCN2)cc1 (racemic) [L]",
    "result units": "nM",
    "Ki": 9.4
  },
  {
    "compound": "CCCC(c1ccc(Cl)cc1)C1CCCCN1 (racemic) [Sample E]",
    "result units": "nM",
    "Ki": 11
  },
  {
    "compound": "CC(C)CC(c1ccc(Cl)c(Cl)c1)C1CCCCN1 (racemic) [Sample N]",
    "result units": "nM",
    "Ki": 1
  }
]

Documented Ki of CC(C)CC(c1ccc(Cl)cc1)C1CCCCN1 (racemic) [Sample D] : 16

---

target: recombinant human norepinephrine transporter (Homo sapiens, UniProt P23975); construct: expressed in transfected cells; experiment: biochemical; type: binding; details: RS/SR racemates table; in μM; read-out: NOREPINEPHRINE [I125]-RTI-55 BINDING (Ki)
Sequence (P23975 whole entry): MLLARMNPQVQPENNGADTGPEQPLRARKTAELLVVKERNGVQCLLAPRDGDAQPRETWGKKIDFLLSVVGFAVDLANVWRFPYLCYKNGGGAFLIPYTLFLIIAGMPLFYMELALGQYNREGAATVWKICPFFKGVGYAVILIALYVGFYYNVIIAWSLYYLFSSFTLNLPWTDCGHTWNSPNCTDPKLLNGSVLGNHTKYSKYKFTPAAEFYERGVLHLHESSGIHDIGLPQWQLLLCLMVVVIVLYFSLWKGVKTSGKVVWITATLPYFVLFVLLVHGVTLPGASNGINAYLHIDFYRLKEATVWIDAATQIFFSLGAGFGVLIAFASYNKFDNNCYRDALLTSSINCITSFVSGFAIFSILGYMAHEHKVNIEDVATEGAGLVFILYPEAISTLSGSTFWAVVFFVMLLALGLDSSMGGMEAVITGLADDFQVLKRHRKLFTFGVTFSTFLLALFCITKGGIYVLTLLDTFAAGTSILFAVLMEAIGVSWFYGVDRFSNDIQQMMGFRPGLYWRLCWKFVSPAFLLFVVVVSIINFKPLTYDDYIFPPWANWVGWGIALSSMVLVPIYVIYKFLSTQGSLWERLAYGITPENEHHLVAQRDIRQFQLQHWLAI
readout label: Ki

Documented Ki of CCC(c1ccc(Cl)cc1)C1CCCCN1 (single isomer, unassigned) [BB] : > 10 µM

---

// reported pIC50 per item
molecular target: recombinant human dopamine transporter (Homo sapiens, UniProt Q01959); construct: expressed in transfected cells; experiment: dopamine reuptake inhibition in HEK 293 cells; format: cell-based; settings: DOPAMINE DA REUPTAKE (IC50), RR/SS racemates table; HEK 293 cells
Expect pIC50 as a plain number equal to -log10 of the molar concentration.

[
  {
    "compound": "CC(C)(C)CC(c1ccc(Cl)cc1)C1CCCCN1 (racemic)",
    "pIC50": 7.22
  },
  {
    "compound": "CCC(c1ccc(Cl)cc1)C1CCCCN1 (single isomer, unassigned)",
    "pIC50": 7.64
  },
  {
    "compound": "COC(=O)C(c1ccc(Cl)cc1)C1CCCCN1 (single isomer, unassigned)",
    "pIC50": 7.96
  },
  {
    "compound": "CC(C)C(c1ccc(Cl)cc1)C1CCCCN1 (single isomer, unassigned)",
    "pIC50": 7.49
  },
  {
    "compound": "COC(=O)C(c1ccc(Cl)c(Cl)c1)C1CCCCN1 (single isomer, unassigned)",
    "pIC50": 7.64
  },
  {
    "compound": "Clc1ccc(C(Cc2ccccc2)C2CCCCN2)cc1 (single isomer, unassigned)",
    "pIC50": 6.43
  },
  {
    "compound": "Clc1ccc(C(CC2CCCCC2)C2CCCCN2)cc1 (single isomer, unassigned)",
    "pIC50": 6.64
  },
  {
    "compound": "CC(C)CC(c1ccc(Cl)c(Cl)c1)C1CCCCN1C (single isomer, unassigned)",
    "pIC50": 7.89
  }
]

Documented pIC50 of Clc1ccc(C(CCc2ccccc2)C2CCCCN2)cc1 (single isomer, unassigned) : 6.80

---

biological target: recombinant human norepinephrine transporter (Homo sapiens, UniProt P23975); construct: expressed in transfected cells; experiment: biochemical; format: binding; conditions: NOREPINEPHRINE [I125]-RTI-55 BINDING (Ki)
readout label: Ki (nM)
Give just the number in nM; leave the unit off.

Sample records with Ki:
[
  {
    "compound": "CC(C)CC(c1ccc(C(C)C)cc1)C1CCCCN1 (racemic) [PP]",
    "tested on": "recombinant human norepinephrine transporter (Homo sapiens, UniProt P23975)",
    "Ki / nM": 3200
  },
  {
    "compound": "Clc1ccc(C(CCc2ccccc2)C2CCCCN2)cc1 (single isomer, unassigned) [II]",
    "tested on": "recombinant human norepinephrine transporter (Homo sapiens, UniProt P23975)",
    "Ki / nM": 2400
  },
  {
    "compound": "Clc1ccc(C(CC2CCCCC2)C2CCCCN2)cc1 (single isomer, unassigned) [H]",
    "tested on": "recombinant human norepinephrine transporter (Homo sapiens, UniProt P23975)",
    "Ki / nM": 4200
  },
  {
    "compound": "Clc1ccc(C(Cc2ccccc2)C2CCCCN2)cc1 (single isomer, unassigned) [JJ]",
    "tested on": "recombinant human norepinephrine transporter (Homo sapiens, UniProt P23975)",
    "Ki / nM": 4000
  },
  {
    "compound": "CC(C)C(c1ccc(Cl)cc1)C1CCCCN1 (single isomer, unassigned) [C]",
    "tested on": "recombinant human norepinephrine transporter (Homo sapiens, UniProt P23975)",
    "Ki / nM": 810
  }
]

Documented Ki of Clc1ccc(C(CCc2ccccc2)C2CCCCN2)cc1 (single isomer, unassigned) [I] : 1800

Documented Ki of CC(C)(C)CC(c1ccc(Cl)cc1)C1CCCCN1 (racemic) [F] : 1400

Documented Ki of CC(C)CC(c1ccc(C(C)C)cc1)C1CCCCN1 (racemic) [P] : 2500

Documented Ki of CCCC(c1ccc(Cl)cc1)C1CCCCN1 (racemic) [EE] : 1400

Documented Ki of Clc1ccc(C(CC2CCCCC2)C2CCCCN2)cc1 (single isomer, unassigned) [HH] : 4300

Documented Ki of Clc1ccc(C(Cc2ccccc2)C2CCCCN2)cc1 (single isomer, unassigned) [J] : 2900

---

target: recombinant human norepinephrine transporter (Homo sapiens); construct: expressed in transfected cells; experiment: cell-based; details: NORE[…] REUPTAKE (IC50), RS/SR racemates table; HEK 293 cells
readout label: IC50 (nM)
Give just the number in nM; leave the unit off.

Documented IC50 of COC(=O)C(c1ccccc1)C1CCCCN1 (stereo not shown) [MPH, methylphenidate, reference compound] : 38

---

biological target: recombinant human norepinephrine transporter (Homo sapiens); construct: expressed in transfected cells; assay: biochemical; type: binding; conditions: RR/SS racemates table; HEK 293 cells; read-out: NOREPINEPHRINE [I125]-RTI-55 BINDING (Ki)
readout label: pKi
Expect pKi as a plain number equal to -log10 of the molar concentration.

[
  {
    "compound": "CC(C)CC(c1ccc(Cl)c(Cl)c1)C1CCCCN1C (single isomer, unassigned)",
    "pKi": 6.72
  }
]

Documented pKi of CCCC(c1ccc(Cl)cc1)C1CCCCN1 (racemic) : 6.70

Documented pKi of CC(C)CC(c1ccc(Cl)c(Cl)c1)C1CCCCN1 (racemic) : 7.60

Documented pKi of Clc1ccc(C(CC2CCCC2)C2CCCCN2)cc1 (racemic) : 5.77

Documented pKi of CCC(c1ccc(Cl)cc1)C1CCCCN1 (single isomer, unassigned) : 6.44

Documented pKi of COC(=O)C(c1ccc(Cl)c(Cl)c1)C1CCCCN1 (single isomer, unassigned) : 7.85

Documented pKi of COC(=O)C(c1ccc(Cl)cc1)C1CCCCN1 (single isomer, unassigned) : 6.96

Documented pKi of CC(C)CC(c1ccc(Cl)cc1)C1CCCCN1 (racemic) : 6.08

---

// reported Ki per item
molecular target: recombinant human serotonin transporter (Homo sapiens, UniProt P31645); construct: expressed in transfected cells; test: biochemical; assay type: binding; conditions: SEROTONIN [I125]-RTI-55 BINDING (Ki)
Sequence (P31645 whole entry): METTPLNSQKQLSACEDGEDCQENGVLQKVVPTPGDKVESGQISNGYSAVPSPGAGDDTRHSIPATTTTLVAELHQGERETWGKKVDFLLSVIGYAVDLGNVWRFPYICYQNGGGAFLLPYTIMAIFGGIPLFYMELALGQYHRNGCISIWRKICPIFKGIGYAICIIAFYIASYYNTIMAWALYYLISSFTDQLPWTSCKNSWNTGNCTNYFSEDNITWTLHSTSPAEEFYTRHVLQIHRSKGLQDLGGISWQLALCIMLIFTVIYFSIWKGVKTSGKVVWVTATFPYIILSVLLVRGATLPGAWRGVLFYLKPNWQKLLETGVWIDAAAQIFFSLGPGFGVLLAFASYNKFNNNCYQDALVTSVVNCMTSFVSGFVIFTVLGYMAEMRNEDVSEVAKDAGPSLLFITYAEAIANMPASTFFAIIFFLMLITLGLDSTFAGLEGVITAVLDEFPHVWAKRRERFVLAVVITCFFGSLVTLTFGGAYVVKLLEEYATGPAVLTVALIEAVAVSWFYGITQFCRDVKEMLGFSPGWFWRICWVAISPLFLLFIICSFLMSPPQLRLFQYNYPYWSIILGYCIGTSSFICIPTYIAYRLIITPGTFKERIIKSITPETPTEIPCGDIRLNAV
Give just the number in µM; leave the unit off.

[
  {
    "compound": "COC(=O)C(c1ccccc1)C1CCCCN1 (centres unmarked) [MPH, methylphenidate, reference compound]",
    "result units": "µM",
    "Ki": 40
  }
]

Documented Ki of Clc1ccc(C(CCc2ccccc2)C2CCCCN2)cc1 (single isomer, unassigned) [II] : 1.84

Documented Ki of COC(=O)C(c1ccc(Cl)cc1)C1CCCCN1 (single isomer, unassigned) [AA] : 5.9

Documented Ki of Clc1ccc(C(CCc2ccccc2)C2CCCCN2)cc1 (single isomer, unassigned) [I] : 0.64

Documented Ki of CCC(c1ccc(Cl)cc1)C1CCCCN1 (single isomer, unassigned) [BB] : 5.7

Documented Ki of Clc1ccc(C(Cc2ccccc2)C2CCCCN2)cc1 (single isomer, unassigned) [JJ] : 4.3

Documented Ki of COC(=O)C(c1ccc(Cl)cc1)C1CCCCN1 (single isomer, unassigned) [A] : 6

Documented Ki of CC(C)C(c1ccc(Cl)cc1)C1CCCCN1 (single isomer, unassigned) [C] : 5.3

---

biological target: recombinant human dopamine transporter (Homo sapiens, UniProt Q01959); construct: expressed in transfected cells; assay: dopamine reuptake inhibition in HEK 293 cells; assay type: cell-based; conditions: DOPAMINE DA REUPTAKE (IC50), RS/SR racemates table; HEK 293 cells
readout label: IC50

Sample records with IC50:
[
  {
    "molecule": "CC(C)CC(c1ccc(Cl)c(Cl)c1)C1CCCCN1C (single isomer, unassigned) [OO]",
    "tested on": "recombinant human dopamine transporter (Homo sapiens, UniProt Q01959)",
    "readout label": "IC50",
    "reported measurement": "45 nM"
  },
  {
    "molecule": "CCCCC(c1ccc(Cl)cc1)C1CCCCN1 (single isomer, unassigned) [GG]",
    "tested on": "recombinant human dopamine transporter (Homo sapiens, UniProt Q01959)",
    "readout label": "IC50",
    "reported measurement": "170 nM"
  },
  {
    "molecule": "Clc1ccc(C(CC2CCCCC2)C2CCCCN2)cc1 (single isomer, unassigned) [HH]",
    "tested on": "recombinant human dopamine transporter (Homo sapiens, UniProt Q01959)",
    "readout label": "IC50",
    "reported measurement": "410 nM"
  }
]

Turning now to a further molecule:
Known value: recombinant human dopamine transporter (Homo sapiens, UniProt Q01959) IC50 of the molecule Clc1ccc(C(C2CCCC2)C2CCCCN2)cc1 (single isomer, unassigned) [KK] equals 240 nM
